tested on: 349418-098-R-PDC complex spheroid viability; experiment: Anticancer human tumor 349418-098-R-PDC patient-derived lung adenocarcinoma cell line growth inhibition [RAS]; settings: second compound 0.000949 µM; first compound 0.1 µM; stronger effect = lower value;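 note: spheroids exposed to compound for seven days before viability readout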
A collection of molecules and their measured viability, T/C
OBSERVABLE: viability, T/C (%)

{"MOLECULE": "C=CC(=O)N1CCN(c2nc(OCC3CCCN3C)nc3c(F)c(-c4nc(N)cc(C)c4C(F)(F)F)c(Cl)cc23)C(C)C1 (stereo unspecified) + CCn1c(-c2cc(N3CCN(C)CC3)cnc2C(C)OC)c2c3cc(ccc31)-c1csc(n1)CC(NC(=O)C1CC1C)C(=O)N1CCCC(N1)C(=O)OCC(C)(C)C2", "EXPERIMENTAL SYSTEM": "349418-098-R-PDC complex spheroid viability", "OBSERVABLE": "viability, T/C", "MEAS VALUE": 101}
{"MOLECULE": "Cc1nc(N2CCC3(CC2)COC(C)C3N)c(CO)nc1Sc1ccnc(N)c1Cl (stereo unspecified) + CCn1c(-c2cc(N3CCN(C)CC3)cnc2C(C)OC)c2c3cc(ccc31)-c1csc(n1)CC(NC(=O)C1CC1C)C(=O)N1CCCC(N1)C(=O)OCC(C)(C)C2", "EXPERIMENTAL SYSTEM": "349418-098-R-PDC complex spheroid viability", "OBSERVABLE": "viability, T/C", "MEAS VALUE": 99.3}
{"MOLECULE": "Nc1ccn(C2OC(CO)C(O)C2(F)F)c(=O)n1 (stereo unspecified) + CCn1c(-c2cc(N3CCN(C)CC3)cnc2C(C)OC)c2c3cc(ccc31)-c1csc(n1)CC(NC(=O)C1CC1C)C(=O)N1CCCC(N1)C(=O)OCC(C)(C)C2", "EXPERIMENTAL SYSTEM": "349418-098-R-PDC complex spheroid viability", "OBSERVABLE": "viability, T/C", "MEAS VALUE": 4.77}
{"MOLECULE": "C[C@@H](NC(=O)c1ncnc(N)c1Cl)c1ncc(C(=O)Nc2cc(C(F)(F)F)c(Cl)cn2)s1 + CCn1c(-c2cccnc2C(C)OC)c2c3cc(ccc31)N1CCOC(CC(NC(=O)C(C(C)C)N(C)C(=O)C3(F)CCN(C(=O)C#CC(C)(C)N(C)C)CC3)C(=O)N3CCCC(N3)C(=O)OCC(C)(C)C2)C1", "EXPERIMENTAL SYSTEM": "349418-098-R-PDC complex spheroid viability", "OBSERVABLE": "viability, T/C", "MEAS VALUE": 106}
{"MOLECULE": "CC(C)NCC(C(=O)N1CCN(c2ncnc3c2C(C)CC3O)CC1)c1ccc(Cl)cc1 (stereo unspecified) + CCn1c(-c2cccnc2C(C)OC)c2c3cc(ccc31)N1CCOC(CC(NC(=O)C(C(C)C)N(C)C(=O)C3(F)CCN(C(=O)C#CC(C)(C)N(C)C)CC3)C(=O)N3CCCC(N3)C(=O)OCC(C)(C)C2)C1", "EXPERIMENTAL SYSTEM": "349418-098-R-PDC complex spheroid viability", "OBSERVABLE": "viability, T/C", "MEAS VALUE": 88.7}
{"MOLECULE": "NC1c2ccccc2OC12CCN(c1cnc3c(N4CCCc5ncccc54)n[nH]c3n1)CC2 (stereo unspecified) + CCn1c(-c2cc(N3CCN(C)CC3)cnc2C(C)OC)c2c3cc(ccc31)-c1csc(n1)CC(NC(=O)C1CC1C)C(=O)N1CCCC(N1)C(=O)OCC(C)(C)C2", "EXPERIMENTAL SYSTEM": "349418-098-R-PDC complex spheroid viability", "OBSERVABLE": "viability, T/C", "MEAS VALUE": 98.8}
